Biological target: RSV prefusion F (preF), subtype A (respiratory syncytial virus, subtype A, UniProt P03420 26-513)
Experiment: BLI, IgG
VALUE_KIND: Kd (nM)
// return numeric value only (unit: nM, not printed)

Below: 2 binders and their reported Kd.
ADI-20976 (antibody, V domains shown) VH: QVQLVESGGDLVQKGGSLRLSCAASGFTFDNYAMTWIRQAPGQGLEWVSTVSGFVLGTGYTTYYADSVKGRFTISRDSSKNTVYLQLNSLRAEDTAVYYCAKCAATRNECLWDYLQQWGQGTTVTVSS VL: EIVMTQSPSSLSASVGDRVTITCRASQSVSIYLNWYQQKGGKAPKLLIYGASALQRGVPSRFSGSGSGTDFTLTITSLQPEDFATYFCHQSYSAPQTFGQGTKVDIK : 1.86
ADI-21025 (antibody, V domains shown) VH: EVQLVESGGGLVRPGGSLRLSCEASGLKLSGYSMNWVRQAPGKGLEWVSSISASSSYIHYADSLKGRFTISRDNAKNSLYLQMNSLRAEDTAVYYCVASWLTPGWFDPWGQGTLVTVSS VL: QPVLTQPPSVSGAPGQTVTISCTGSSSNIGAGYDVHWYQQLPGTAPKLLIYGNTNRPSGVPDRFSGSKSGTSASLAVTGLQAEDEGDYYCQSYDSSLSGSAFGGGTKLTVL : 0.242

Next binder, Kd to be filled in.
Q) Which measured Kd value corresponds to ADI-14408 (antibody, V domains shown, also called Ab 74) VH: QVQLVQSGPALVKTTQTLTLTCTFSGFSLTTSGMCVSWIRQPPGKALEWLARIDWDDDKYYSTSLKTRLTISKDTSKNQVVLTLTNVDPVDTATYYCARMQKYDSSGYYLHYFDSWGQGTLVTVSS VL: DIRLTQSPSSLSASVGDRVTIACRASQSISSYLNWYQQKPGKSPKVLIYAASILQTGVPSRFSGSGSGTDFTLTISSLQPEDFATYYCQQSYSINQYTFGQGTKVEIK ?
A) 8.53
